experimentalReadout: melting point

compound | melting point
CCc1nn(C2CCCCC2)c2cc(C(=O)Nc3c(Cl)cncc3Cl)ccc12 | 124 to 127 °C
O=C(O)c1ccccc1OCCN1CCC(c2c[nH]c3ccccc23)CC1 | 230 °C

Turning now to a further compound:
Q. Entry Cc1cc(C)c2c(c1C)OCC2c1ccc(C(C)C)cc1 (stereo not given) has what melting point?
A. 48 to 49 °C

---

The following compounds are listed with their measured melting point values.

compound | experimentalReadout | result
CNc1nc2c(Cc3cccnc3)c(C)c(O)c(C)c2s1 | melting point | 236 to 238 °C
CCCOc1ccccc1-c1nc(O)cc(C#N)n1 | melting point | 135 to 136 °C
Cc1ccc(CC2CCN(C(=O)C(=O)Nc3ccc4[nH]c(=O)[nH]c4c3)CC2)cc1 | melting point | > 280 °C
COc1nc(C)nc(NC(=NS(=O)(=O)c2cccnc2)SC)n1 | melting point | 146 to 149 °C
Cc1ccc2c(c1)N=C(N1CCN(C)CC1)c1cc(Br)cc3c1N2CC3 | melting point | 187 to 189 °C

Q. Entry Nc1nnc(Cc2cccc(C(F)(F)F)c2)s1 has what melting point?
A. 174 to 176 °C

Q. Request: FC(F)(F)c1cc(CN2CCc3cc(OC[C@H]4CO[C@](Cn5ccnc5)(c5ccc(Cl)cc5Cl)O4)ccc3C2)ccc1Cl (racemic)
A. 107 to 108 °C

Q. Request: Cc1ccc(C(=O)Cn2c(=NS(=O)(=O)c3ccc(C)cc3)sc3ccccc32)cc1
A. 180 to 182 °C

Q. Request: c1ccc2oc3cnnc-3cc2c1
A. 215 °C

Q. Request: COc1cc2c(cc1C)C1(CO2)C(=O)Nc2ccccc21 (stereo not given)
A. > 250 °C

---

The following compounds are listed with their measured melting point values.

Worked cases, answers included:
compound | melting point
COc1ccc2ccccc2c1C(Nc1ccccc1C)C(N)=O (stereo unspecified) | 195 °C
COC(=O)c1ccc(OC(Cc2ccccc2)C(=O)OC)cc1 (stereo unspecified) | 96 to 98 °C
CCCCS(=O)(=O)c1c(Cl)nc(Cl)nc1Cl | 71 to 72 °C
O=C(O)CCCCCCCn1ncc(-c2ccccc2)c1-c1ccccc1 | 94 to 95 °C

Q. Entry Cc1cc(NS(=O)(=O)c2ccc(Cl)cc2)cc(C)c1S(=O)(=O)C[N+](=O)[O-] has what melting point?
A. 160 to 162 °C

Q. Request: C=C(c1ccc(N(C)C)cc1)c1ccc(N(C)C)cc1C
A. 90 to 91 °C

Q. Request: COC(=O)C(O)c1ccc(C#N)cc1 (stereo unspecified)
A. 51 to 52 °C

Q. Request: CC(=Cc1ccc(F)cc1)COc1cc(C)c(NC=O)c(C)c1C
A. 164 to 165 °C

Q. Request: CCCN(CCC)C(=O)CNc1nc(-c2ccccc2)nc(CC)c1C
A. 83 to 84 °C

Q. Request: CC(C)(C)OC(=O)N1CCN(C(=O)C2CCN(C(=O)OCc3ccccc3)C2)CC1 (stereo unspecified)
A. 70 to 74 °C

Q. Request: S=C=Nc1ccc(Cl)c(Cl)c1
A. 111 to 113 °C

---

experimentalReadout: melting point

Worked cases, answers included:
molecule | result
O=C(CN1CCN(C(c2ccccc2)c2ccccc2)CC1)Nc1ccc2ncnn2n1 | 203 to 204 °C
COC(=O)c1c(SCc2ccccc2)n[nH]c1C | 109 to 110 °C
O=CC1=C(c2ccc3sccc3c2)N2CCN=C2S1 | 146 °C
NS(=O)(=O)c1cc2ccncc2o1 | 199 to 201 °C
CCCCNC(=O)N(c1ccccc1)c1ccccc1 | 92 °C
CC(C)(C)OC(=O)C[C@@H](CC1CCCC1)C(=O)O | 86.5 to 88 °C

Q. Entry COc1ccc(CC(C(=O)O)N(CCCNC(=O)OC(C)(C)C)C(=O)CBr)cc1 (stereo unspecified) has what melting point?
A. 79 to 81 °C

Q. Request: CC(C)n1cnc2c(Nc3cccc(Cl)c3)nc(Cl)nc21
A. 128 to 129 °C

Q. Request: NNc1ncc(-c2cccc(C(F)(F)F)c2)nn1
A. 229 to 232 °C

Q. Request: CCCN(CCC)C1=NC2C(Br)=NN(C)C2C(O)=N1 (stereo unspecified)
A. 186 to 187 °C

Q. Request: CC1(C)CCC(C)(C)c2cc3c(cc21)CCc1c(-c2ccc(C(=O)O)cc2)ccnc1-3
A. 286 to 289 °C

---

The following molecules are listed with their measured melting point values.
Write the value in °C as a bare number.

smilesString | melting point / °C
O=C(O)CN(Cc1ccc(OCc2ccc(F)cc2)cc1)C(=O)c1cn2cc(-c3ccc(Cl)cc3)ccc2n1 | 206

Q. Entry Nc1c(Cl)cc(C(=O)OC2CCN(CCCC(=O)c3ccc4[nH]c(=O)[nH]c4c3)CC2)c2c1CCO2 has what melting point?
A. 273

---

The following compounds are listed with their measured melting point values.

Worked cases, answers included:
compound | result
Cc1nc(-c2ccccc2C(F)(F)F)c(CCC(=O)O)o1 | 118 to 119 °C
Clc1cc(Br)c2oc3c(Cl)c(Br)c(Cl)c(Br)c3c2c1 | 220 to 222 °C
Cc1ccc(S(=O)(=O)c2ccc3c(c2)c(CCN(C)C(=O)OC(C)(C)C)cn3C)cc1 | 143 to 145 °C
N#Cc1ccc(Cc2cccnc2)cc1 | 155 to 157 °C
COc1cc(-c2ccc(O)c(C3(C)CCCCC3)c2)cc(CC2SC(N3CCCC3)=NC2=O)c1O (stereo not given) | 204 to 206 °C
CN(C)C(=O)[C@@H]1CS[C@@H](CS)C1 | 41.8 to 44.4 °C
COc1ccnc2c1c(C(C)=O)cn2S(=O)(=O)c1ccccc1 | 156 to 158 °C
CN1Cc2c(C(=O)OCC3CCC3)ncn2-c2cccc(Cl)c2C1=O | 181 to 182 °C

Q. Entry O=C(O)Cc1ccc(OCCc2ccccc2)c(OCc2ccccc2)c1 has what melting point?
A. 116 to 119 °C

Q. Request: Cn1cc(C2=C(c3c4n(c5ccccc35)CC(NC(=O)OC(C)(C)C)CC4)C(=O)NC2=O)c2ccccc21 (stereo not given)
A. 159 to 163 °C

---

The following compounds are listed with their measured melting point values.

Worked cases, answers included:
compound | result
Cc1cc2c(Br)ccc([N+](=O)[O-])c2cn1 | 146 °C
COC(=O)Cc1ccc(CNC(=O)C2Cc3ccccc3N2S(=O)(=O)c2ccc(-c3cccc(C)c3)cc2)cc1 (stereo not given) | 66 to 68 °C
Cc1cc2cc(CN3CCCC3)cnc2cc1NC(=O)c1ccc(-c2ccc(Cl)cc2)nc1 | 232 to 237 °C

Q. Entry CC(C)(C)OC(=O)Nc1ccc(Br)cc1 has what melting point?
A. 101 to 103 °C

Q. Request: COc1cc(C(=O)O)ccc1-c1nc2cc3c(cc2[nH]1)NC(=O)C3(C)C
A. 315 to 319 °C

Q. Request: CCOc1ccc(O)c(CC(=O)OC)c1
A. 83 to 84 °C

Q. Request: CN(C(=O)N[C@@H](Cc1ccc(Nc2nccc3cnccc23)cc1)C(=O)O)c1ccccc1Cc1ccccc1
A. 141 °C

Q. Request: CN1CCN(C2=Nc3ccccc3N=C(c3ccccc3)C2)CC1
A. 155 to 157 °C

Q. Request: CC(=O)c1ccc(NC(=O)NCCN(CCNC(=O)Nc2ccc(C(C)=O)cc2)CCNC(=O)Nc2ccc(C(C)=O)cc2)cc1
A. 189 to 190 °C

Q. Request: CC(Oc1ccc(-c2ccc(Cl)cc2)cc1)(C(=O)O)C(F)(F)F (stereo not given)
A. 198 to 199 °C

---

experimentalReadout: melting point

molecule | melting point
O=C(Oc1ccc2cc(CN3CCCC3)ccc2c1)N1CCC(c2ccc(F)cc2)CC1 | 106 to 108 °C
Clc1nc[nH]c2ncc(I)c1-2 | 195 to 196 °C
c1ccc(CN2CCc3[nH]c4cc(-c5ccccc5)ccc4c3CC2)cc1 | 176 to 177 °C
O=C(Nc1ccc(-n2nc(C(F)(F)F)cc2C(F)(F)F)cc1)C1CCCCCC1 | 174 to 175 °C
CC(C)(C)OC(=O)n1cc(C=C(Br)Br)c2ccccc21 | 101 to 104 °C

Q. Entry CCCc1c(OCc2ccc3ncc(CCC(=O)O)c(=O)n3c2)ccc(C(C)=O)c1O has what melting point?
A. 190 to 194 °C

Q. Request: CSC1C(=O)Nc2ccc(C3=NNC(=O)SC3C)cc21 (stereo not given)
A. 159 °C

Q. Request: O=C(Nc1ccc(-n2ccnc2)cc1)NC12CC3CC(CC(C3)C1)C2
A. 272 to 276 °C

Q. Request: O=C(Nc1csc(Br)n1)C(Cl)(Cl)Cl
A. 77 to 80 °C

Q. Request: CCn1cc(C(=O)O)c(=O)c2cc(F)c(C(=O)CBr)c(F)c21
A. 213 to 215 °C

Q. Request: COC(=O)C1(C)CCCC2(C)c3c(OC)cc(C(C)C)c(OC)c3CCC12 (stereo not given)
A. 133 to 135 °C

Q. Request: Cc1cccc(NC(=O)NCC(=O)N(CC(=O)N2CCCCC2C)c2ccccc2)c1 (racemic)
A. 188 °C

Q. Request: O=C(NCCO[N+](=O)[O-])c1ccsc1
A. 100 to 102 °C

Q. Request: CCOc1ccc([N+](=O)[O-])c(Nc2ccc(C(C)C)cc2)c1
A. 100 °C

Q. Request: CCCN(CCC)C(=O)Cc1cn(Cc2ccccc2Br)c2ccccc12
A. 118 to 119 °C

Q. Request: COc1cc(C(C)(C)CCCC(=O)OC2CC(C)(C)NC(C)(C)C2)c(O)cc1C(C)(C)CCCC(=O)OC1CC(C)(C)NC(C)(C)C1
A. 165 to 168 °C

Q. Request: CCOC(=O)c1sc(I)nc1C(F)(F)F
A. 75 to 76 °C

Q. Request: CCCNC(=O)CCCCOc1ccc2c(c1)CCCN2C1CC(C)N(C(=O)c2cc(OC)c(OC)c(OC)c2)c2ccccc21 (stereo not given)
A. 124 to 133 °C

Q. Request: CCOC(=O)C(O)C(Oc1ccccc1[N+](=O)[O-])c1ccccc1 (stereo not given)
A. 129 to 131 °C

Q. Request: C=CCON=C(C(=O)OCC)c1csc(N)n1
A. 102 to 104 °C
